The reported numbers originate from patent US11634417B2.

Assay target: full-length SHP2 (Homo sapiens, UniProt Q06124)
Construct: 1 nM full-length SHP2 (His6-tagged SHP2(2-527), recombinantly expressed in E. coli and purified in-house); His6
Sequence (Q06124 2-527): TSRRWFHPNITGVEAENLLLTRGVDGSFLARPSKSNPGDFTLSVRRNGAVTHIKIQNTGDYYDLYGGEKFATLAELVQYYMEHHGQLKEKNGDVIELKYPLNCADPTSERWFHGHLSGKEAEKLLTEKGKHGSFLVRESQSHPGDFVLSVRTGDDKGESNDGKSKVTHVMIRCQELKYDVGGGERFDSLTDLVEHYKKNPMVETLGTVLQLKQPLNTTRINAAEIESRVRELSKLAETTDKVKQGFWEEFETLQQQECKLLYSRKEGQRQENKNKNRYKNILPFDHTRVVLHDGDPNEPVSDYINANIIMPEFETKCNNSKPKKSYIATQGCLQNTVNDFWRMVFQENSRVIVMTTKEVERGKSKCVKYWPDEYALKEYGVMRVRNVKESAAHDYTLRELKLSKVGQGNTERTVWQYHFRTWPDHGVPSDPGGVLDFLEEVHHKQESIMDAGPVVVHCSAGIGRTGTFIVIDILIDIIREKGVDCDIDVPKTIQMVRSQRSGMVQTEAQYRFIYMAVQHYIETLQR
Protocol description: SHP2 enzymatic assay (fluorescence intensity kinetic assay, DiFMUP hydrolysis)
Run conditions: 1 nM His6-tagged SHP2(2-527), 1 μM activating peptide, 50 μM DiFMUP; single assay or mean of multiple assays; read-out: Biological Example 1 IC50
Assay metric: IC50 (nM)

a = N[C@@H]1c2ccccc2CC12CCN(c1ncc(Oc3ccccc3)nn1)CC2
b = N[C@@H]1c2ccccc2CC12CCN(c1ncc(Sc3ccnc4[nH]ccc34)nn1)CC2
c = C[C@@H]1OCC2(CCN(c3ncc(-c4cccc(Cl)c4Cl)nn3)CC2)[C@@H]1N
d = N[C@@H]1c2ccccc2CC12CCN(c1ncc(Sc3ccnc(NCCO)c3Cl)nn1)CC2
Exercise: Arrange the items listed above so that IC50 rises from first to last. # list labels per requested ordering
Solution: a, b, d, c
(a: 4 nM, b: 22 nM, d: 46 nM, c: 76 nM)
